B1: TMEM40 (parent)
chain: YGETDFHKQDGKAGLFSQEQYERN

Variants of: B1
assay.name: protein stability index of a GFP-peptide fusion (GPS, HEK-293T) (PSI 1-6); higher = more stable;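 also: lentivirally expressed fusions sorted by FACS into six bins by GFP to DsRed ratio, PSI derived from sequencing read proportions per bin multiplied by bin number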
assay.setup: c terminus: a fixed tail appended

| mutant.label | protein stability index |
| --- | --- |
| S17K | 3.44 |
| Y1K | 5.01 |
| Y1N | 4.77 |
| Q20K | 3.79 |
| F16S | 4.88 |
| Q9K | 3.7 |
| Q9W | 2.99 |
| E19W | 2.64 |
| A13G | 4.08 |
| F16P | 5.02 |
| Q9N | 4.53 |
| E22H | 3.34 |
| F16G | 4.84 |
| F16W | 3.08 |
| Y21C | 3.95 |
| G2S | 4.56 |
| L15I | 4.08 |
| G14D | 4.79 |
| F16Q | 5.1 |
| S17Q | 4.48 |
| R23P | 4.21 |
| G14P | 4.34 |
| K12T | 4.5 |
| E3Q | 3.71 |
| Q18G | 4.26 |
| N24D | 4.4 |
